B1: MMP1 (parent)
chain: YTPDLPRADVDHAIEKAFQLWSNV

# Variants of: B1
# assay remarks: protein stability index of a GFP-peptide fusion (GPS, HEK-293T) (PSI 1-6); higher = more stable;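 further: lentivirally expressed fusions sorted by FACS into six bins by GFP to DsRed ratio, PSI derived from sequencing read proportions per bin multiplied by bin number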
# condition details: c terminus: a fixed tail appended
Rule: protein stability index of 2 or more gives Yes; anything lower gives No.

sequence	class
YTPDLPRADQDHAIEKAFQLWSNV	No
YTPDGPRADVDHAIEKAFQLWSNV	No
YTPDLPRADVDHAIPKAFQLWSNV	No
YTPDLPRADVDHAIEKAWQLWSNV	No
YTPDLPRADVDHAIEKAFQLISNV	Yes
YTPDLPRADVMHAIEKAFQLWSNV	Yes
GTPDLPRADVDHAIEKAFQLWSNV	Yes
YTPDLHRADVDHAIEKAFQLWSNV	No
YTPDLPRADVDHAIFKAFQLWSNV	Yes
YTPDLPRADVDHRIEKAFQLWSNV	Yes
ATPDLPRADVDHAIEKAFQLWSNV	Yes
YTPDLPRADVDHAIEKAFQLWSHV	No
YTPDLPRADTDHAIEKAFQLWSNV	No
YTPDLPRADVDHAIEKGFQLWSNV	No
YTFDLPRADVDHAIEKAFQLWSNV	Yes
YTPDLPRADVDHAIEKAFQLWGNV	No
YTPDLPRADVDHAIMKAFQLWSNV	Yes
YTPDLPRADVDHAIEKAFGLWSNV	No
YTPDLPRADVDHAIEKAFQLRSNV	Yes
YTPDLPAADVDHAIEKAFQLWSNV	Yes
YTPDLPRADVDHAIEKAFQLWSVV	Yes
YTPDLPRADVDHAIEKATQLWSNV	Yes
YTPDLPRADVDHAIHKAFQLWSNV	Yes
MTPDLPRADVDHAIEKAFQLWSNV	Yes
YTPDLPRADVNHAIEKAFQLWSNV	No
YIPDLPRADVDHAIEKAFQLWSNV	Yes
YTPDLKRADVDHAIEKAFQLWSNV	Yes
YTPDIPRADVDHAIEKAFQLWSNV	Yes
YTPDLPRADVDHAIEKAFQLWSKV	Yes
YTPDLPRADVDHAIEKAFQLWVNV	No
YTPDKPRADVDHAIEKAFQLWSNV	No
YTPDLPRADVDLAIEKAFQLWSNV	Yes
YTPDLPRAKVDHAIEKAFQLWSNV	Yes
YTPDLPRADVDHAIEKAFQLWSNC	No
YTPDLPRADVEHAIEKAFQLWSNV	No
YFPDLPRADVDHAIEKAFQLWSNV	Yes
YTPDLPRADVIHAIEKAFQLWSNV	No
YTPDLPRADVDHAIEKAYQLWSNV	Yes
YTPDLPRADVDHAMEKAFQLWSNV	No
